The entries below are paired with their reported pIC50.
- Test system: 616215-338-R-J1-PDC complex spheroid viability
- Method: Anticancer human tumor 616215-338-R-J1-PDC patient-derived colon adenocarcinoma cell line growth inhibition [RAS]
- Test Context: curve of first compound; second compound 1 µM
The read-out pIC50 is expressed as -log10 of concentration in moles per litre.

Molecule: CCN1CCN(Cc2ccc(Nc3ncc(F)c(-c4cc(F)c5nc(C)n(C(C)C)c5c4)n3)nc2)CC1 + C#Cc1c(F)ccc2cc(O)cc(-c3ncc4c(N5CC6CCC(C5)N6)nc(OCC56CCCN5CC(F)C6)nc4c3F)c12
pIC50: 6.16

Now look at this one.
Using the record for CCc1c2c(nc3ccc(O)cc13)-c1cc3c(c(=O)n1C2)COC(=O)[C@]3(O)CC + C#Cc1c(F)ccc2cc(O)cc(-c3ncc4c(N5CC6CCC(C5)N6)nc(OCC56CCCN5CC(F)C6)nc4c3F)c12 , report its pIC50.
8.11

###

- Tested on: 616215-338-R-J1-PDC complex spheroid viability
- Method: Anticancer human tumor 616215-338-R-J1-PDC cell line growth inhibition [RAS];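 further: spheroids exposed to agents for seven days before viability readout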
- Test Context: curve of first compound; second compound 0.0949 µM
The entries below are paired with their reported IC50.

# example entries with known answers
Compound: C=CC(=O)Nc1cc(Nc2nccc(-c3cn(C)c4ccccc34)n2)c(OC)cc1N(C)CCN(C)C + CCn1c(-c2cc(N3CCN(C)CC3)cnc2C(C)OC)c2c3cc(ccc31)-c1csc(n1)CC(NC(=O)C1CC1C)C(=O)N1CCCC(N1)C(=O)OCC(C)(C)C2
Recorded Endpoint: IC50
Measurement: < 3.16 nM
--
Compound: C=CC(=O)Nc1cc(Nc2nccc(-c3cn(C)c4ccccc34)n2)c(OC)cc1N(C)CCN(C)C + CCn1c(-c2cccnc2C(C)OC)c2c3cc(ccc31)N1CCOC(CC(NC(=O)C(C(C)C)N(C)C(=O)C3(F)CCN(C(=O)C#CC(C)(C)N(C)C)CC3)C(=O)N3CCCC(N3)C(=O)OCC(C)(C)C2)C1
Recorded Endpoint: IC50
Measurement: > 1000 nM
--
Compound: CC1(O)CCCC1n1c(=O)c(C(F)F)cc2cnc(NC3CCN(S(C)(=O)=O)CC3)nc21 (stereo not drawn) + CCn1c(-c2cc(N3CCN(C)CC3)cnc2C(C)OC)c2c3cc(ccc31)-c1csc(n1)CC(NC(=O)C1CC1C)C(=O)N1CCCC(N1)C(=O)OCC(C)(C)C2
Recorded Endpoint: IC50
Measurement: < 31.6 nM

Using the record for NC1c2ccccc2OC12CCN(c1cnc3c(N4CCCc5ncccc54)n[nH]c3n1)CC2 (stereo not drawn) + CCn1c(-c2cc(N3CCN(C)CC3)cnc2C(C)OC)c2c3cc(ccc31)-c1csc(n1)CC(NC(=O)C1CC1C)C(=O)N1CCCC(N1)C(=O)OCC(C)(C)C2 , report its IC50.
< 31.6 nM

###

The entries below are paired with their reported IC50.
- System: 616215-338-R-J1-PDC complex spheroid viability
- Method: Anticancer human tumor 616215-338-R-J1-PDC cell line growth inhibition [RAS];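 further: spheroids exposed to agents for seven days before viability readout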
- Test Context: curve of first compound; second compound 0.00949 µM
API: value field is a number in nM; no unit string.

Compound: Nc1ccn(C2OC(CO)C(O)C2(F)F)c(=O)n1 (configuration not stated) + CCn1c(-c2cc(N3CCN(C)CC3)cnc2C(C)OC)c2c3cc(ccc31)-c1csc(n1)CC(NC(=O)C1CC1C)C(=O)N1CCCC(N1)C(=O)OCC(C)(C)C2
IC50, nM: 3.62

Give 616215-338-R-J1-PDC complex spheroid viability IC50 for CC1(C)CCC(Nc2ncc(C(F)(F)F)c(-c3c[nH]c4c(P(C)(C)=O)c(C#N)ccc34)n2)CN1 (configuration not stated) + CCn1c(-c2cccnc2C(C)OC)c2c3cc(ccc31)N1CCOC(CC(NC(=O)C(C(C)C)N(C)C(=O)C3(F)CCN(C(=O)C#CC(C)(C)N(C)C)CC3)C(=O)N3CCCC(N3)C(=O)OCC(C)(C)C2)C1
13.9
